Target desc: hPrRPR (Homo sapiens, UniProt P49683)
Construct: the full-length open reading frame (ORF) of human PrRP receptor (hPrRPR); expressed in transfected cells; host or cells: HEK-293T
Protocol description: NFAT-luc reporter assay, functional expression of hPrRPR in HEK-293T cells
Type: cell-based
Reported conditions: HEK-293T, NFAT-luc reporter, 24 h, 37°C; GraphPad Prism 7; read-out: EC50, hPrRPR
Ends that are not written are not given here.
Metric name: EC50
Respond with the figure and its unit, in that order.

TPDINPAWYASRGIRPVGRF-NH2 [hPrRP] : 0.191 µM

Now look at this one.
### Prompt Note down EC50 recorded for DPNIDAVWYKGRGIRPVGRF-NH2 [PrRP2]
### Response 0.0524 µM

---

Target desc: hPrRPR (Homo sapiens, UniProt P49683)
Construct: the full-length open reading frame (ORF) of human PrRP receptor (hPrRPR); expressed in transfected cells; host or cells: HEK-293T
Sequence (P49683 1-370): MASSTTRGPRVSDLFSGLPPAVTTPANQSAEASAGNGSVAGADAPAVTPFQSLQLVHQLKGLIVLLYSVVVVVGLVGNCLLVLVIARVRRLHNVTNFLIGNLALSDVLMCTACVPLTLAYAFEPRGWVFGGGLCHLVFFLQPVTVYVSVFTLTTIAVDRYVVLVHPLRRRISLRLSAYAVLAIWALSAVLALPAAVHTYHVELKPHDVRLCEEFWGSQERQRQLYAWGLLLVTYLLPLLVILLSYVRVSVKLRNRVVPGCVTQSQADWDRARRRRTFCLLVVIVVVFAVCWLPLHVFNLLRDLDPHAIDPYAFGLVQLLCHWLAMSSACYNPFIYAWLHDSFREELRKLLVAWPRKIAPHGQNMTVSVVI
Protocol description: NFAT-luc reporter assay, functional expression of hPrRPR in HEK-293T cells
Format: cell-based
Ends that are not written are not given here.
Metric name: EC50 (nM)
Enter your answer as a number in nM; do not include the unit.

### Prompt Please give measured EC50 of the following entry: SPEIDPFWYVGRGVRPIGRF-NH2 [PrRP1]
### Response 182

---

EC50 for assorted substances
Target desc: PrRP-R1a (Ctenopharyngodon idella)
Sequence (A0A4P9NKE7 1-371): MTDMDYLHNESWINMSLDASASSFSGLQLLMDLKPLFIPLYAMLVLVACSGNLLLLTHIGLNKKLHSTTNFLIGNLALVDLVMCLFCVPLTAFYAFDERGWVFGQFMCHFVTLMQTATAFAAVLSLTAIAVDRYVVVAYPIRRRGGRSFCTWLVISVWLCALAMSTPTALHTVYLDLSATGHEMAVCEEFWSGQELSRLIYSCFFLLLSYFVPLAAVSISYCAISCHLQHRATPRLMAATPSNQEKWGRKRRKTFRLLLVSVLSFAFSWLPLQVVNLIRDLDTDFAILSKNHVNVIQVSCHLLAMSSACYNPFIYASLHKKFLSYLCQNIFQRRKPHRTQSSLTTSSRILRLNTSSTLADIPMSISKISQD
Protocol description: cell-based
Parameters: species or system grass carp (Ctenopharyngodon idellus)
Ends that are not written are not given here.
Please respond with the number in µM and leave the unit unwritten.

Answered examples (2):
SPEIDPFWYVGRGVRPIGRF-NH2 [PrRP1] : 0.0853
DPNIDAVWYKGRGIRPVGRF-NH2 [PrRP2] : 3.16

Switching to the query record.
### Prompt Give EC50; test system PrRP-R1a (Ctenopharyngodon idella); substance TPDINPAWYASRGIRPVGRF-NH2 [hPrRP]
### Response 1.11

---

Target desc: PrRP-R1b (Ctenopharyngodon idella, UniProt A0A4P9NKE2)
Sequence (A0A4P9NKE2 1-377): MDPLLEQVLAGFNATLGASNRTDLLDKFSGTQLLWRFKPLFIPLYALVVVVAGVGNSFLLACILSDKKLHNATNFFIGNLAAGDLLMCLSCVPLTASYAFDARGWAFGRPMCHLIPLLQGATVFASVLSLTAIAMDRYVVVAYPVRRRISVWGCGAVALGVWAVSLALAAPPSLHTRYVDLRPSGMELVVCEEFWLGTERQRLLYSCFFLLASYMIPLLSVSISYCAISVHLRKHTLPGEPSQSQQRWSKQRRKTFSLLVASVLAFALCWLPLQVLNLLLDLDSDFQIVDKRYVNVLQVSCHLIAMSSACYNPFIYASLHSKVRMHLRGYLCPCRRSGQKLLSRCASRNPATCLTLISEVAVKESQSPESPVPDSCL
Protocol description: cell-based
Parameters: species or system grass carp (Ctenopharyngodon idellus)
Ends that are not written are not given here.
# pEC50 listing for each entry below
// field semantics: pEC50 = negative decimal log of concentration (mol/L)

Some substances with recorded pEC50:
SPEIDPFWYVGRGVRPIGRF-NH2 [PrRP1] : 6.72
DPNIDAVWYKGRGIRPVGRF-NH2 [PrRP2] : 6.21

Moving on to the next substance.
### Prompt Tell me its pEC50 given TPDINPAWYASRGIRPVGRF-NH2 [hPrRP] as the entry.
### Response 5.66
